Experiment Summary: AUC (0 to infinity) in mouse plasma at 10 mg/kg, po by HPLC analysis
Assay type: ADME, organism-based
Design: time infinity, dose 10 mg/kg, route oral

Smiles Code	U	AUC(0-inf)
CC1=C(C)C(=O)C(CC[C@](C)(O)CCC[C@H](C)CCC[C@H](C)CCCC(C)C)=C(C)C1=O	ng·h/mL	2070

###

Each entry below carries its recorded GI50 at 48 h.
Experiment Summary: Growth inhibition of human FRDA primary patient fibroblasts after 48 hrs by calcein-AM-based cell viability assay
Set-up: species or system Fibroblast
Condition Details: FRDA primary patient fibroblasts
Metric Name: GI50 at 48 h (µM)

Smiles Code	Metric Name	Censoring Sign	Value
COC1=C(OC)C(=O)C(C/C=C(\C)CC/C=C(\C)CC/C=C(\C)CC/C=C(\C)CC/C=C(\C)CC/C=C(\C)CC/C=C(\C)CC/C=C(\C)CC/C=C(\C)CCC=C(C)C)=C(C)C1=O	GI50 at 48 h	=	220
COC1=C(OC)C(=O)C(CCCCCCCCCCO)=C(C)C1=O	GI50 at 48 h	=	98
CC1=C(C)C(=O)C(CC[C@](C)(O)CCC[C@H](C)CCC[C@H](C)CCCC(C)C)=C(C)C1=O	GI50 at 48 h	≥	300

###

Experiment Summary: Cmax in mouse plasma at 10 mg/kg, po by HPLC analysis
Format: ADME, organism-based
Set-up: dose 10 mg/kg, route oral
Metric Name: Cmax (ng/mL)

Smiles Code	Value
CC1=C(C)C(=O)C(CC[C@](C)(O)CCC[C@H](C)CCC[C@H](C)CCCC(C)C)=C(C)C1=O	519

###

Experiment Summary: Tmax in mouse plasma at 10 mg/kg, po by HPLC analysis
Assay type: ADME, organism-based
Design: dose 10 mg/kg, route oral

Smiles Code	Tmax, h
CC1=C(C)C(=O)C(CC[C@](C)(O)CCC[C@H](C)CCC[C@H](C)CCCC(C)C)=C(C)C1=O	1

###

Experiment Summary: Oral bioavailability in mouse plasma at 10 mg/kg by HPLC analysis
Format: ADME, organism-based

Smiles Code	U	bioavailability
CC1=C(C)C(=O)C(CC[C@](C)(O)CCC[C@H](C)CCC[C@H](C)CCCC(C)C)=C(C)C1=O	%	24

###

Experiment Summary: AUCt in mouse plasma at 5 mg/kg, iv by HPLC analysis
Assay type: ADME, organism-based
Design: dose 5 mg/kg, route intravenous

Smiles Code	AUC(0-t) (ng·h/mL)
CC1=C(C)C(=O)C(CC[C@](C)(O)CCC[C@H](C)CCC[C@H](C)CCCC(C)C)=C(C)C1=O	3980

###

Experiment Summary: AUCt in mouse plasma at 10 mg/kg, po by HPLC analysis
Assay type: ADME, organism-based
Set-up: dose 10 mg/kg, route oral
Metric Name: AUC(0-t)

Smiles Code	Metric Name	Value
CC1=C(C)C(=O)C(CC[C@](C)(O)CCC[C@H](C)CCC[C@H](C)CCCC(C)C)=C(C)C1=O	AUC(0-t)	1980 ng·h/mL

###

Experiment Summary: Half life in mouse plasma at 5 mg/kg, iv by HPLC analysis
Type: ADME, organism-based
Design: dose 5 mg/kg, route intravenous

Smiles Code	half-life
CC1=C(C)C(=O)C(CC[C@](C)(O)CCC[C@H](C)CCC[C@H](C)CCCC(C)C)=C(C)C1=O	16.2 h

###

Experiment Summary: Growth inhibition of human FRDA primary patient fibroblasts after 48 hrs by calcein-AM-based cell viability assay
Parameters: species or system Fibroblast
Condition Details: fibroblast, 48 h

Substance	GI50
VITAMIN E	≥ 300 µM

###

Experiment Summary: Cmax in dog plasma at 25 mg/kg, po by HPLC analysis
Format: ADME, organism-based, Canis lupus familiaris
Set-up: dose 25 mg/kg, route oral

Smiles Code	Cmax [ng/mL]
CC1=C(C)C(=O)C(CC[C@](C)(O)CCC[C@H](C)CCC[C@H](C)CCCC(C)C)=C(C)C1=O	2370

###

Tested on: Fibroblast
Experiment Summary: Cytoprotective activity against BSO-induced human FRDA primary patient fibroblasts compound pretreated 12 hrs prior to BSO-induction measured after 48 hrs by calcein-AM-based cell viability assay
Assay type: functional
Condition Details: Homo sapiens, Fibroblast
Metric Name: EC50 (nM)

Smiles Code	Value
CC1=C(C)C(=O)C(CC[C@](C)(O)CCC[C@H](C)CCC[C@H](C)CCCC(C)C)=C(C)C1=O	36
COC1=C(OC)C(=O)C(CCCCCCCCCCO)=C(C)C1=O	592

###

Experiment Summary: AUCt in rat plasma at 100 mg/kg, po by HPLC analysis
Assay type: ADME, organism-based
Parameters: dose 100 mg/kg, route oral
Metric Name: AUC(0-t) (µg·h/mL)

Smiles Code	Value
CC1=C(C)C(=O)C(CC[C@](C)(O)CCC[C@H](C)CCC[C@H](C)CCCC(C)C)=C(C)C1=O	26.4

###

Experiment Summary: Growth inhibition of human primary fibroblasts after 48 hrs by calcein-AM-based cell viability assay
Design: species or system Fibroblast

Smiles Code	GI50 at 48 h
CC1=C(C)C(=O)C(CC[C@](C)(O)CCC[C@H](C)CCC[C@H](C)CCCC(C)C)=C(C)C1=O	≥ 300 µM

###

Experiment Summary: Tmax in dog plasma at 25 mg/kg, po by HPLC analysis
Format: ADME, organism-based, Canis lupus familiaris
Set-up: dose 25 mg/kg, route oral

Smiles Code	Tmax / h
CC1=C(C)C(=O)C(CC[C@](C)(O)CCC[C@H](C)CCC[C@H](C)CCCC(C)C)=C(C)C1=O	2

###

Experiment Summary: Cmax in rat plasma at 100 mg/kg, po by HPLC analysis
Assay type: ADME, organism-based
Design: dose 100 mg/kg, route oral

Smiles Code	Cmax (ng/mL)
CC1=C(C)C(=O)C(CC[C@](C)(O)CCC[C@H](C)CCC[C@H](C)CCCC(C)C)=C(C)C1=O	3010

###

Experiment Summary: AUC (0 to infinity) in dog plasma at 25 mg/kg, po by HPLC analysis
Type: ADME, organism-based, Canis lupus familiaris
Parameters: time infinity, dose 25 mg/kg, route oral

Smiles Code	U	AUC(0-inf)
CC1=C(C)C(=O)C(CC[C@](C)(O)CCC[C@H](C)CCC[C@H](C)CCCC(C)C)=C(C)C1=O	ng·h/mL	16800

###

Experiment Summary: Clearance in mouse plasma at 5 mg/kg, iv by HPLC analysis
Assay type: ADME, organism-based
Design: dose 5 mg/kg, route intravenous

Smiles Code	U	clearance
CC1=C(C)C(=O)C(CC[C@](C)(O)CCC[C@H](C)CCC[C@H](C)CCCC(C)C)=C(C)C1=O	mL/min/kg	20

###

Experiment Summary: Half life in mouse plasma at 10 mg/kg, po by HPLC analysis
Format: ADME, organism-based
Set-up: dose 10 mg/kg, route oral
Metric Name: half-life (h)

Smiles Code	U	Value
CC1=C(C)C(=O)C(CC[C@](C)(O)CCC[C@H](C)CCC[C@H](C)CCCC(C)C)=C(C)C1=O	h	5.8
